- testSystem: T1, hCD22 fragment Bin 6, IVR6 (aa476-575), displayed on yeast cells (human, UniProt P20273 495-594)
- T1 construct: range 476-575; Range is counted on the mature ECD, not on the UniProt entry; on P20273 it would be 495-594 (my arithmetic); also called CD22 Sub-Domain 6; not shown: Aga2-HA display fusion partner of vector pPNL6; MYC tag
- T1 sequence (looked up): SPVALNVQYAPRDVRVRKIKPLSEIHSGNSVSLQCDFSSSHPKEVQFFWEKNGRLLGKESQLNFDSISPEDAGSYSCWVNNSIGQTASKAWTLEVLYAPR
- assayText: yeast display cell ELISA, OD on denatured over non-denatured CD22 fragment
metric: CD22 Ratio (D/ND)
Reply: number alone, nothing else.

Per the record, hCD221ug-13 (VHH, single biotin at the VHH C-terminal (biotinylation signal sequence), llama VHH, expressed in E. coli TG1, IMAC purified, monomeric SEC fraction; also called VHH # 21; 1-hCD22 1ug-13) VHH: QVQLVESGGGLVQAGDSLRLSCAGSGGSFSSVTMAWFRQAPGKDREFVAAITWSSPSTYYADSVKGRFTISRDNAKNTVYLQMNSLKPEDTAVYYCAGGRTGRGTSADTDEYNYWGQGTQVTVSS has CD22 Ratio (D/ND) of 0.6

The binder hCD221ug-36 (VHH, single biotin at the VHH C-terminal (biotinylation signal sequence), llama VHH, expressed in E. coli TG1, IMAC purified, monomeric SEC fraction; also called VHH # 22; 4-hCD22 1ug-36) VHH: EVQLVDSGGGLVQAGGSLRVSCEASGITFSRAAMGWYRQRPGKERERVAVVNSDSSTIYADSVKGRFTISRDNAKNTVYLQMNSLEPEDTAVYYCWSPGFGSYWGQGTQVTVSS showed CD22 Ratio (D/ND) equal to 1

In plain terms, hCD221ug-80 (VHH, single biotin at the VHH C-terminal (biotinylation signal sequence), llama VHH, expressed in E. coli TG1, IMAC purified, monomeric SEC fraction; also called VHH # 1; 2-hCD22 1ug-80) VHH: QVQLVESGGGLVQPGGSLRLSCTFSGFTLDYYVMVWFRQAPGKEREAVSCITSDGVTYYADSVKGRFTISRDNAKNTVYLQMNRVKPEDTAVYYCAVDKPFYDGGIQYTCPVDFDSWGQGAQVTVSS has a documented CD22 Ratio (D/ND) of 1.02

Entry hCD22pas-64 (VHH, single biotin at the VHH C-terminal (biotinylation signal sequence), llama VHH, expressed in E. coli TG1, IMAC purified, monomeric SEC fraction; also called VHH # 25; 7-hCD22 pas-64) VHH: QVQLVESGGGLVQAGGSLRLSCAASGSTFSLNTMAWYRQAPGNQREYVAAASSDGYTNYADSVRGRFTISRDNDKNTMYLQMNSLRPEDTAVYYCTWGTGRFADYIYWGQGTQVTVSS ; CD22 Ratio (D/ND) = 0.684
